Source: paper PMC6429710

test system: asexual erythrocytic stages of transgenic NF54-luc P. falciparum; assay: Luciferase-based viability screening for antiplasmodial activity; format: cell-based, Plasmodium falciparum; details: 3 µM test compound, 48 h, luciferase readout, ± SD
Is % inhibition ± SD, PfNF54-Luc at 3 µM at least 70%? Then TRUE. If not, FALSE.

| COMPOUND | CLASS_ASSIGNMENT |
| --- | --- |
| N#Cc1c(N)nc2sc(C(=O)c3cccc(Cl)c3)c(N)c2c1-c1ccc(O)cc1Cl [2e] | FALSE |
| CN(C)c1ccc(-c2c(C#N)c(N)nc3sc(C(=O)c4cccc(Cl)c4)c(N)c23)c(Cl)c1 [4a] | FALSE |
| CN(CCNC(=O)OC(C)(C)C)c1ccc(-c2c(C#N)c(N)nc3sc(C(=O)c4cccc(Cl)c4)c(N)c23)c(Cl)c1 [4f] | FALSE |
| N#Cc1c(N)nc2sc(C(=O)c3cccc(Cl)c3)c(N)c2c1-c1ccc(N2CCCC2)cc1Cl [4c] | FALSE |
| N#Cc1c(N)nc2sc(C(=O)c3cccc(Cl)c3)c(N)c2c1-c1ccc(OCCO)cc1Cl [3d] | FALSE |
| N#Cc1c(N)nc2sc(C(=O)c3cccc(Cl)c3)c(N)c2c1-c1ccc(N2CCOCC2)cc1Cl [4e] | FALSE |
| Cl.N#Cc1c(N)nc2sc(C(=O)c3cccc(Cl)c3)c(N)c2c1-c1ccc(N2CCNCC2)cc1Cl [4j] | TRUE |

Next, consider the following compound.
# check: % inhibition ± SD, PfNF54-Luc at 3 µM of CN(C)CCN(C)c1ccc(-c2c(C#N)c(N)nc3sc(C(=O)c4cccc(Cl)c4)c(N)c23)c(Cl)c1 [4h] is greater than or equal to 70% TRUE

###

assay: Kinetic solubility by laser nephelometry; assay type: physicochemical; details: kinetic from dmso stock, aqueous phosphate buffer pH 7.4, 1% DMSO, 25 °C, mean ± standard deviation, read-out: S0 pH 7.4, exp (kinetic solubility)
PROPERTY_MEASURED: solubility kinetic at 10 s

Notebook: N#Cc1c(N)nc2sc(C(=O)c3cccc(Cl)c3)c(N)c2c1-c1ccccc1Cl , solubility kinetic at 10 s read as 1.5 µM

###

Target: PfGSK-3 (Plasmodium falciparum)
Construct: 6xHis; made in house; host or cells: Escherichia coli C41
Sequence (O77344 1-440): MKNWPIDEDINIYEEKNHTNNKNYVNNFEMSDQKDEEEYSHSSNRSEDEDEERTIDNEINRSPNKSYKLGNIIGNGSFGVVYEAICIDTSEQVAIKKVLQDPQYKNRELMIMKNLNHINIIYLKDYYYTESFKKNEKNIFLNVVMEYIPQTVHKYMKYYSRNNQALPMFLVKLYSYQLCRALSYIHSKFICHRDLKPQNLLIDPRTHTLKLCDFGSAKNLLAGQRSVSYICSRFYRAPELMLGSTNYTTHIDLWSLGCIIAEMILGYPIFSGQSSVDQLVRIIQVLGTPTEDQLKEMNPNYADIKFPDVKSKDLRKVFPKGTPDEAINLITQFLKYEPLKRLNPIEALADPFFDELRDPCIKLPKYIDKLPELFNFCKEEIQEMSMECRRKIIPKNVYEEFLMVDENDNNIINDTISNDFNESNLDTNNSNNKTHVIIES
Experiment: biochemical
Assay type: biochemical
Conditions: 6 µM ATP; mean of three determinations, range in brackets; read-out: IC50 [µM], PfGSK-3 (Kinase Glo Plus)
This section presents compounds with their documented IC50 values.
Record the value in µM, omitting the unit from your answer.

Worked cases, answers included:
| COMPOUND | PROPERTY_MEASURED | MEASURE_UNIT | RECORDED_MEASUREMENT |
| --- | --- | --- | --- |
| CCN(CC)c1ccc(-c2c(C#N)c(N)nc3sc(C(=O)c4cccc(Cl)c4)c(N)c23)c(Cl)c1 [(+)4b] | IC50 | µM | 39.6 |
| N#Cc1c(N)nc2sc(C(=O)c3cccc(Cl)c3)c(N)c2c1-c1ccccc1Cl [compound 1] | IC50 | µM | 0.24 |

Notebook: CN(C)CCN(C)c1ccc(-c2c(C#N)c(N)nc3sc(C(=O)c4cccc(Cl)c4)c(N)c23)c(Cl)c1 [4h] , IC50 read as 0.72

###

test system: asexual erythrocytic stages of transgenic NF54-luc P. falciparum; assay: Luciferase-based viability screening for antiplasmodial activity; assay type: cell-based, Plasmodium falciparum; settings: 3 µM test compound, 48 h, luciferase readout, ± SD
Is % inhibition ± SD, PfNF54-Luc at 3 µM at least 30%? Then true (1). If not, false (0).

Look over these answered cases.
| SMILES_DATA | CLASS_ASSIGNMENT |
| --- | --- |
| N#Cc1c(N)nc2sc(C(=O)c3cccc(Cl)c3)c(N)c2c1-c1ccc(F)cc1Cl | false (0) |
| COc1ccc(-c2c(C#N)c(N)nc3sc(C(=O)c4cccc(Cl)c4)c(N)c23)c(Cl)c1 | true (1) |
| CN(CCN)c1ccc(-c2c(C#N)c(N)nc3sc(C(=O)c4cccc(Cl)c4)c(N)c23)c(Cl)c1.Cl | false (0) |

# check: % inhibition ± SD, PfNF54-Luc at 3 µM of Cc1ccc(-c2c(C#N)c(N)nc3sc(C(=O)c4cccc(Cl)c4)c(N)c23)c(Cl)c1 is greater than or equal to 30% false (0)

# check: % inhibition ± SD, PfNF54-Luc at 3 µM of CCOc1ccc(-c2c(C#N)c(N)nc3sc(C(=O)c4cccc(Cl)c4)c(N)c23)c(Cl)c1 is greater than or equal to 30% false (0)

###

molecular target: HsGSK-3 (Homo sapiens, UniProt P49841); experiment: Kinase-Glo Plus assay for inhibition of HsGSK-3; type: biochemical; details: 6 µM ATP; mean of three determinations, range in brackets
Sequence (P49841 whole entry): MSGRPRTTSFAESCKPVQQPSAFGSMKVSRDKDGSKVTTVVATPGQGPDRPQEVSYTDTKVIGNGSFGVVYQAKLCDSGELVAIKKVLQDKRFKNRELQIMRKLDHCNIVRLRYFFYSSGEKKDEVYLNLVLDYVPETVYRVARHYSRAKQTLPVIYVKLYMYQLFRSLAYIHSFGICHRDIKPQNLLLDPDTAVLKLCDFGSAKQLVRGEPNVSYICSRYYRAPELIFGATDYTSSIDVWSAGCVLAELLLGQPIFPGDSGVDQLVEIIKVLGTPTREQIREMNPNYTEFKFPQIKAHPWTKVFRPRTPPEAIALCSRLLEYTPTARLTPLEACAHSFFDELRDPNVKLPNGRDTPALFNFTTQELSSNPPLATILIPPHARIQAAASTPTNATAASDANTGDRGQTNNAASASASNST
This section presents compounds with their documented IC50 values.
Record the value in µM, omitting the unit from your answer.

| SMILES_DATA | IC50 / µM |
| --- | --- |
| N#Cc1c(N)nc2sc(C(=O)c3cccc(Cl)c3)c(N)c2c1-c1ccccc1Cl | 9.08 |

Consider now this further compound.
Notebook: CN(C)CCN(C)c1ccc(-c2c(C#N)c(N)nc3sc(C(=O)c4cccc(Cl)c4)c(N)c23)c(Cl)c1 , IC50 read as 40.2

###

system: HEK293T cells; experiment: Cytotoxicity assay on HEK293 cells (PrestoBlue viability); assay type: cell-based, human; conditions: Homo sapiens, HEK-293T; cell viability, 48 h; mean of six determinations, range in brackets
PROPERTY_MEASURED: IC50 (µM)
Record the value in µM, omitting the unit from your answer.

Notebook: N#Cc1c(N)nc2sc(C(=O)c3cccc(Cl)c3)c(N)c2c1-c1ccccc1Cl , IC50 read as 35.2

###

test system: asexual erythrocytic stages of transgenic NF54-luc P. falciparum; experiment: Luciferase-based viability screening for antiplasmodial activity; format: cell-based, Plasmodium falciparum; details: 3 µM test compound, 48 h, luciferase readout, ± SD
Is % inhibition ± SD, PfNF54-Luc at 3 µM at least 30%? Then satisfied. If not, not satisfied.

| COMPOUND | CLASS_ASSIGNMENT |
| --- | --- |
| CC(C)(C)OC(=O)N1CCN(c2ccc(-c3c(C#N)c(N)nc4sc(C(=O)c5cccc(Cl)c5)c(N)c34)c(Cl)c2)CC1 | satisfied |

# check: % inhibition ± SD, PfNF54-Luc at 3 µM of N#Cc1c(N)nc2sc(C(=O)c3cccc(Cl)c3)c(N)c2c1-c1ccc(N2CCCCC2)cc1Cl is greater than or equal to 30% satisfied

# check: % inhibition ± SD, PfNF54-Luc at 3 µM of N#Cc1c(N)nc2sc(C(=O)c3cccc(Cl)c3)c(N)c2c1-c1ccc(OCC(=O)O)cc1Cl is greater than or equal to 30% satisfied

# check: % inhibition ± SD, PfNF54-Luc at 3 µM of N#Cc1c(N)nc2sc(C(=O)c3cccc(Cl)c3)c(N)c2c1-c1ccc(OCc2ccccc2)cc1Cl is greater than or equal to 30% not satisfied

# check: % inhibition ± SD, PfNF54-Luc at 3 µM of N#Cc1c(N)nc2sc(C(=O)c3cccc(Cl)c3)c(N)c2c1-c1ccc(Cl)cc1Cl is greater than or equal to 30% not satisfied

# check: % inhibition ± SD, PfNF54-Luc at 3 µM of CN(CC[C@H](N)CC(=O)N[C@H]1C=C[C@H](n2ccc(N)nc2=O)O[C@@H]1C(=O)O)C(=N)N [BS, Blasticidin, reference compound] is greater than or equal to 30% satisfied

# check: % inhibition ± SD, PfNF54-Luc at 3 µM of N#Cc1c(N)nc2sc(C(=O)c3cccc(Cl)c3)c(N)c2c1-c1ccc(OCC(O)CO)cc1Cl (stereo not shown) is greater than or equal to 30% not satisfied
